# experimental details: chemical genetic growth profiling, strain panel (AID 1159580);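 note: tested at 20 µM; growth read once vehicle control cultures reached saturation at 30 °C; lower values mean less growth of the strain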
# study conditions: S. cerevisiae deletion strains, growth OD, locus YNL250W, strain rad50
In all, about 5,500 compounds went through this assay and about 2,000 (36%) were called active. Inconclusive results (about 18%) are left out. Cut-off read from the data, not from the text of the source: active = normalized growth mostly below about 0.91 (no sharp cut-off); inconclusive = no clear call, values can overlap the other calls; inactive = mostly above about 0.92. The list shows a part of the results.
Tick one outcome: True (active), False (inactive)

[[record]]
compound = "O=C1C[C@@H](c2ccc(O)cc2)Oc2cc(O)cc(O)c21"
assigned_category = "False"

[[record]]
compound = "O=C(O)c1ccccc1OP(=O)(O)O"
assigned_category = "False"

[[record]]
compound = "CCC(C(N)=O)c1ccccc1 (stereo not drawn)"
assigned_category = "False"

[[record]]
compound = "C=CC1=C(C(=O)O)N2C(=O)[C@@H](NC(=O)/C(=N/O)c3csc(N)n3)[C@H]2SC1"
assigned_category = "False"

[[record]]
compound = "COc1ccc(C2CC(=O)c3ccc(OC)cc3O2)cc1 (stereo not drawn)"
assigned_category = "False"


--- query ---
Ask | Could you please tell me the result logged for COc1ccc2c(c1)OC[C@@H](Cc1ccc(OC)c(OC)c1)[C@@H]2O in this assay?
Reply | False
